biological target: the molecule itself; assay: cell-based or functional assay
readout: In vitro activity (% of WT), EnzChek pyrophosphate assay, forward reaction

Would you mind giving In vitro activity (% of WT), EnzChek pyrophosphate assay, forward reaction for every protein in the list below?
1. PaUGP D67N (enzyme, UDP-glucose pyrophosphorylase of Pseudomonas aeruginosa (galU), residues 1-279, point mutant of Strep-PaUGP; Same construct as m1; source: E. coli BL21(DE3), purified (Strep-Tactin Sepharose); not shown: Strep-tagII, N-terminal, kept) MIKKCLFPAAGYGTRFLPATKAMPKEMLPVVNKPLIQYAVEEALEAGLSEIGIVTGRGKRSLEDHFNISYELEHQIRNTDKEKYLVGIRRLIDECTFAYTRQVEMKGLGHAILTGRPLIGDEPFAVVLADDLCLNLEGDSVLKQMVKLYNQFRCSIVAIQEVPPEETNKYGVIAGEMIRDDIFRVNTMVEKPKPEEAPSNLAIIGRYILTPDIFDLIEQTEPGKGGEIQITDALMKQAQDGCVLAYKFKGKRFDCGSAEGYIEATNFCYENLYKTGKAH
2. PaUGP N32A (enzyme, UDP-glucose pyrophosphorylase of Pseudomonas aeruginosa (galU), residues 1-279, point mutant of Strep-PaUGP; Same construct as m1; source: E. coli BL21(DE3), purified (Strep-Tactin Sepharose); not shown: Strep-tagII, N-terminal, kept) MIKKCLFPAAGYGTRFLPATKAMPKEMLPVVAKPLIQYAVEEALEAGLSEIGIVTGRGKRSLEDHFDISYELEHQIRNTDKEKYLVGIRRLIDECTFAYTRQVEMKGLGHAILTGRPLIGDEPFAVVLADDLCLNLEGDSVLKQMVKLYNQFRCSIVAIQEVPPEETNKYGVIAGEMIRDDIFRVNTMVEKPKPEEAPSNLAIIGRYILTPDIFDLIEQTEPGKGGEIQITDALMKQAQDGCVLAYKFKGKRFDCGSAEGYIEATNFCYENLYKTGKAH

2.54 % of WT
56.2 % of WT
